procedure-summary: AUC (0 to 24 hrs) in male Sprague-Dawley rat at 10 mg/kg, po measured up to 24 hrs by LC/MS-MS analysis
Format: ADME, organism-based
Set-up: time < 24 hr, dose 10 mg/kg, route oral
measurement-parameters: in vivo
recorded-metric: AUC(0-t) at 24 h (µM·h)
Number in µM·h, nothing else.

INPUT: For the compound `Fc1ccc(/C=N/Nc2nc(-c3ccc(C(F)(F)F)cc3)cs2)cc1F` , give its reported AUC(0-t) at 24 h.
OUTPUT: 5.34

###

procedure-summary: Total plasma clearance in male Sprague-Dawley rat at 2 mg/kg, iv measured up to 24 hrs by LC/MS-MS analysis
Format: ADME, organism-based
recorded-metric: clearance (L/h/kg)
Number in L/h/kg, nothing else.

INPUT: For the compound `Fc1ccc(/C=N/Nc2nc(-c3ccc(C(F)(F)F)cc3)cs2)cc1F` , give its reported clearance.
OUTPUT: 0.03
